biological target: ComR S. suis 05ZYH33 (residues 1–304), wild-type (Streptococcus suis 05ZYH33); assay: ITC; 300 μM XIP injected into 20 μM ComR; VP-ITC, 25°C; 20 mM Tris pH 7.5, 100 mM NaCl, 1 mM β-ME; one-site model
MEASURED_ATTRIBUTE: pKd
In simple prose, pKd is minus the logarithm base ten of a concentration in moles per litre.

Recorded pKd of GLDWWSL [S. mutans UA159 XIP-C7] , please.
5.23

# credit: paper PMC5131902
